Where these numbers come from: ChEMBL document CHEMBL3507680

Can you tell me cytotoxicity at 70.5 h for the items I'm about to list?
assay_comment: Human HepG2 cell viability assay in 384 well format
Type: toxicity, cell-based
Design: dose 125 nL, time 70.5 hour; concentration not given beside the values
run_conditions: HepG2 cells, read-out: Inhibition

In: Name the recorded cytotoxicity at 70.5 h of the item CCCNC(=O)c1cccc(CNCc2csc(C(C)(C)C)n2)c1 in your answer.
Out: -44.8%

In: Name the recorded cytotoxicity at 70.5 h of the item CN1CCN(C[C@@H]2CN(C(=O)c3ccccc3C#N)C[C@@H]2CO)CC1 in your answer.
Out: 13.9%

In: Name the recorded cytotoxicity at 70.5 h of the item Cc1nc(CN2CCCC2c2noc(C3CC3)n2)nc2ccccc12 (stereo not given) in your answer.
Out: 43.5%

In: Name the recorded cytotoxicity at 70.5 h of the item Cc1cc(C(=O)NS(C)(=O)=O)c(C)n1-c1ccccc1 in your answer.
Out: -13.1%

In: Name the recorded cytotoxicity at 70.5 h of the item Cn1ccnc1C(=O)N1CCOC(Cc2ccc(Cl)cc2)C1 (stereo not given) in your answer.
Out: -8.65%

---

assay_comment: Human HepG2 cell viability assay in 384 well format
Type: toxicity, cell-based
Design: dose 125 nL, time 70.5 hour; concentration not given beside the values
run_conditions: HepG2 cells, read-out: Inhibition
Can you tell me cytotoxicity at 70.5 h for the items I'm about to list?

In: Name the recorded cytotoxicity at 70.5 h of the item Cc1cc(C(F)(F)F)nc(CCNc2nc(C)nc3sccc23)n1 in your answer.
Out: 15.7%

In: Name the recorded cytotoxicity at 70.5 h of the item O=C(c1cccnc1)N1CCCC1c1cc[nH]n1 (configuration not stated) in your answer.
Out: 23.9%

In: Name the recorded cytotoxicity at 70.5 h of the item COc1cccc(OCC2CCCN(C(=O)c3cnc(C)nc3O)C2)c1 (configuration not stated) in your answer.
Out: -9.18%

In: Name the recorded cytotoxicity at 70.5 h of the item CN(CCc1cn[nH]c1)C(=O)C1CC(=O)N(Cc2ccccn2)C1 (configuration not stated) in your answer.
Out: 6.7%

In: Name the recorded cytotoxicity at 70.5 h of the item NCC(=O)N1CCCC(c2ccnc(Nc3cnccn3)n2)C1 (configuration not stated) in your answer.
Out: -7.18%

In: Name the recorded cytotoxicity at 70.5 h of the item COc1ccccc1C1(CNCc2cccc(O)c2)CCOCC1 in your answer.
Out: -2.11%

In: Name the recorded cytotoxicity at 70.5 h of the item CC(C)C(=O)N(C)CC(=O)Nc1ccc(Br)cn1 in your answer.
Out: -2.8%

In: Name the recorded cytotoxicity at 70.5 h of the item O=C(Nc1ccccc1Oc1cccc(F)c1)C1CCS(=O)(=O)C1 (configuration not stated) in your answer.
Out: -5.38%

In: Name the recorded cytotoxicity at 70.5 h of the item CCN(CC)C(=O)C1CCN(C(=O)Nc2cccnc2OC)CC1 in your answer.
Out: 34.4%

In: Name the recorded cytotoxicity at 70.5 h of the item Cc1noc(C)c1S(=O)(=O)N1CCC(Oc2cnccn2)CC1 in your answer.
Out: 11.2%

In: Name the recorded cytotoxicity at 70.5 h of the item COc1ccc2c(=O)ccn(CC(=O)O)c2c1 in your answer.
Out: 1.58%

In: Name the recorded cytotoxicity at 70.5 h of the item CC(=O)N1CCN(Cc2ccc(C(F)(F)F)c(F)c2)CC(O)C1 (configuration not stated) in your answer.
Out: 0.294%
